# measured on: FGFR1 (Homo sapiens)
# Construct: purchased Millipore
# assay remarks: ELISA kinase assay, FGFR1 enzymatic activity
# Format: biochemical
# reported conditions: 0.01 μM (10 nM); mean of two separate experiments
property: inhibition at 0.01 µM (%)

compound	inhibition at 0.01 µM [%]
CC(C)n1cnc(S(=O)(=O)n2ccc3ncc(-c4cn[nH]c4)nc32)c1 [Compound 30]	40.4
CCC(=O)n1cc(-c2cnc3ccn(S(=O)(=O)c4cn(CCF)cn4)c3n2)cn1 [Compound 16]	15.1
CCOC(=O)C(C(=O)OCC)n1cc(-c2cnc3ccn(S(=O)(=O)c4cn(CCF)cn4)c3n2)cn1 [Compound 26]	26.8
CC(C)Cn1cnc(S(=O)(=O)n2ccc3ncc(-c4cn[nH]c4)nc32)c1 [Compound 31]	13.9

I = CNC(=O)Cn1cnc(S(=O)(=O)n2ccc3ncc(-c4cn[nH]c4)nc32)c1 [Compound 33]
II = O=S(=O)(c1cnc2cccnn12)n1ccc2ncc(-c3cn[nH]c3)nc21 [Compound 35]
III = COC(=O)Cn1cc(-c2cnc3ccn(S(=O)(=O)c4cn(CCF)cn4)c3n2)cn1 [Compound 19]
Problem: Sort these compounds on inhibition at 0.01 µM so the largest reading comes first. # respond with the labels, arranged in the requested order
Solution: II, I, III

###

# measured on: FGFR1 (Homo sapiens, UniProt P11362)
# Construct: purchased Millipore
# Sequence (P11362 22-822): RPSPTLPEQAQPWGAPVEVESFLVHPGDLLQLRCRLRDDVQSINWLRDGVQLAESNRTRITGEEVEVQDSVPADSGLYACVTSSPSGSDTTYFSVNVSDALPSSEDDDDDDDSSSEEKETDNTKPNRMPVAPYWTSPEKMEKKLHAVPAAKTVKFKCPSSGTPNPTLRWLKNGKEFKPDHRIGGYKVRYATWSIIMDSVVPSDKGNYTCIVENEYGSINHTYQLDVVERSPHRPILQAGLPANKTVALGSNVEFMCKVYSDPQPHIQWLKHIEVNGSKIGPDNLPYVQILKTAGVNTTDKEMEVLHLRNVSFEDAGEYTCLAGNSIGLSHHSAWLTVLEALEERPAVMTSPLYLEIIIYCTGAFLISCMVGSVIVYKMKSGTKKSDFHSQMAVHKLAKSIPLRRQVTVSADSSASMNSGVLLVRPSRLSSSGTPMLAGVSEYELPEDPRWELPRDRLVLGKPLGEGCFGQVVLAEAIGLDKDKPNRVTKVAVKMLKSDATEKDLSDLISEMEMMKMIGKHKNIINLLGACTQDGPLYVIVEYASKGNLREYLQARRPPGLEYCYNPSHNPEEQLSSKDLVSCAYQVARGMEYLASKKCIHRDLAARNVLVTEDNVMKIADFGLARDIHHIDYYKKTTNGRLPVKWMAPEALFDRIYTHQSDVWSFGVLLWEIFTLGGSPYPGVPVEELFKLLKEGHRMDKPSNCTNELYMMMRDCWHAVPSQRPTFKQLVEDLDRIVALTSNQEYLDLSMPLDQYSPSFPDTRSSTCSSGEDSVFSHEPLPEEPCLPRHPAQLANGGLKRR
# assay remarks: ELISA kinase assay, FGFR1 enzymatic activity
# Format: biochemical
# reported conditions: 0.1 μM; mean of two separate experiments
property: inhibition at 0.1 µM (%)

CS(=O)(=O)n1cc(-c2cnc3ccn(S(=O)(=O)c4cn(CCF)cn4)c3n2)cn1 37.1
O=S(=O)(c1c[nH]cn1)n1ccc2ncc(-c3cn[nH]c3)nc21 71.9
CC(C)Cn1cnc(S(=O)(=O)n2ccc3ncc(-c4cn[nH]c4)nc32)c1 19.9

P = CC(=O)n1cc(-c2cnc3ccn(S(=O)(=O)c4cn(CCF)cn4)c3n2)cn1
Q = O=S(=O)(c1cn(CCF)cn1)n1ccc2ncc(-c3cnn(C4CC4)c3)nc21
R = O=S(=O)(c1cn(CCF)cn1)n1ccc2ncc(-c3cnn(S(=O)(=O)C4CC4)c3)nc21
Problem: Sort these compounds on inhibition at 0.1 µM so the largest reading comes first. # respond with the labels, arranged in the requested order
Solution: P, R, Q

###

# measured on: FGFR1 (Homo sapiens)
# Construct: purchased Millipore
# assay remarks: ELISA kinase assay, FGFR1 enzymatic activity
# Format: biochemical
# reported conditions: 0.1 μM; mean of two separate experiments
property: inhibition at 0.1 µM (%)

CCOC(=O)Cn1cc(-c2cnc3ccn(S(=O)(=O)c4cn(CCF)cn4)c3n2)cn1 5.4

I = CCC(=O)n1cc(-c2cnc3ccn(S(=O)(=O)c4cn(CCF)cn4)c3n2)cn1
II = COC(=O)Cn1cc(-c2cnc3ccn(S(=O)(=O)c4cn(CCF)cn4)c3n2)cn1
Problem: Between I and II , which one shows the smaller inhibition at 0.1 µM number? Provide the label of your selected option as the answer.
Solution: II
(II: 12%, I: 55.8%)

a = COC(=O)C(C(=O)OC)n1cc(-c2cnc3ccn(S(=O)(=O)c4cn(CCF)cn4)c3n2)cn1
b = O=S(=O)(c1cn(C2CCCC2)cn1)n1ccc2ncc(-c3cn[nH]c3)nc21
Problem: Between a and b , which one shows the smaller inhibition at 0.1 µM number? Provide the label of your selected option as the answer.
Solution: b
(b: 20.1%, a: 46.5%)

###

# measured on: FGFR1 (Homo sapiens, UniProt P11362)
# Construct: purchased Millipore
# assay remarks: ELISA kinase assay, FGFR1 enzymatic activity
# Format: biochemical
# reported conditions: 0.01 μM (10 nM); mean of two separate experiments
property: inhibition at 0.01 µM (%)

// below: answered compounds
compound	output unit	inhibition at 0.01 µM
O=S(=O)(c1cn(CCF)cn1)n1ccc2ncc(-c3cnn(S(=O)(=O)C4CC4)c3)nc21 [Compound 24]	%	16.6
O=S(=O)(c1c[nH]cn1)n1ccc2ncc(-c3cn[nH]c3)nc21 [Compound 27]	%	27.9
CCOC(=O)Cn1cc(-c2cnc3ccn(S(=O)(=O)c4cn(CCF)cn4)c3n2)cn1 [Compound 20]	%	7.2
Cn1cnc(S(=O)(=O)n2ccc3ncc(-c4cn[nH]c4)nc32)c1 [Compound 28]	%	12.5
CC(=O)n1cc(-c2cnc3ccn(S(=O)(=O)c4cn(CCF)cn4)c3n2)cn1 [Compound 15]	%	35.9

1 = COC(=O)C(C(=O)OC)n1cc(-c2cnc3ccn(S(=O)(=O)c4cn(CCF)cn4)c3n2)cn1 [Compound 25]
2 = CCn1cnc(S(=O)(=O)n2ccc3ncc(-c4cn[nH]c4)nc32)c1 [Compound 29]
Problem: Which value of inhibition at 0.01 µM is greater, the one for 1 or the one for 2 ? Provide the label of your selected option as the answer.
Solution: 2
(2: 53.7%, 1: 23.5%)

###

# measured on: FGFR1 (Homo sapiens, UniProt P11362)
# Construct: purchased Millipore
# assay remarks: ELISA kinase assay, FGFR1 enzymatic activity
# Format: biochemical
# reported conditions: 5 μM; mean of two separate experiments
property: inhibition at 5 µM (%)

molecule	measurement
Cn1cnc(S(=O)(=O)n2ccc3ncc(-c4cnn(C)c4)nc32)c1 [Compound 11]	58.1
Cn1cc(-c2cnc3ccn(S(=O)(=O)c4c(Cl)nc5sccn45)c3n2)cn1 [Compound 9]	83.7
Cn1cc(-c2cnc3ccn(S(=O)(=O)c4cn(CCF)cn4)c3n2)cn1 [Compound 12]	68.9
Cn1cc(-c2cnc3ccn(S(=O)(=O)c4cnn5cccnc45)c3n2)cn1 [Compound 10]	77

###

# measured on: FGFR1 (Homo sapiens)
# Construct: purchased Millipore
# assay remarks: ELISA kinase assay, FGFR1 enzymatic activity
# Type: biochemical
# reported conditions: 10 μM; mean of two separate experiments
property: inhibition at 10 µM (%)

Cn1cnc(S(=O)(=O)n2ccc3ncc(-c4cnn(C)c4)nc32)c1 86
Cn1cc(-c2cnc3ccn(S(=O)(=O)c4cnn5cccnc45)c3n2)cn1 91
Cn1cc(-c2cnc3ccn(S(=O)(=O)c4cn(CCF)cn4)c3n2)cn1 89
Cn1cc(-c2cnc3ccn(S(=O)(=O)c4c(Cl)nc5sccn45)c3n2)cn1 92.5

###

# measured on: FGFR1 (Homo sapiens, UniProt P11362)
# Construct: purchased Millipore
# assay remarks: ELISA kinase assay, FGFR1 enzymatic activity
# Format: biochemical
# reported conditions: 0.1 μM; mean of two separate experiments
property: inhibition at 0.1 µM (%)

compound	measured on	inhibition at 0.1 µM, %
CCn1cnc(S(=O)(=O)n2ccc3ncc(-c4cn[nH]c4)nc32)c1 [Compound 29]	FGFR1 (Homo sapiens, UniProt P11362)	79.5
CC(=O)Cn1cc(-c2cnc3ccn(S(=O)(=O)c4cn(CCF)cn4)c3n2)cn1 [Compound 18]	FGFR1 (Homo sapiens, UniProt P11362)	13.3
Cn1cnc(S(=O)(=O)n2ccc3ncc(-c4cn[nH]c4)nc32)c1 [Compound 28]	FGFR1 (Homo sapiens, UniProt P11362)	63.2

P = CNC(=O)Cn1cc(-c2cnc3ccn(S(=O)(=O)c4cn(CCF)cn4)c3n2)cn1 [Compound 21]
Q = CN(C)C(=O)Cn1cc(-c2cnc3ccn(S(=O)(=O)c4cn(CCF)cn4)c3n2)cn1 [Compound 22]
R = O=S(=O)(c1cnc2cccnn12)n1ccc2ncc(-c3cn[nH]c3)nc21 [Compound 35]
Problem: Sort these compounds on inhibition at 0.1 µM so the largest reading comes first. # respond with the labels, arranged in the requested order
Solution: R, P, Q

###

# measured on: FGFR1 (Homo sapiens)
# Construct: purchased Millipore
# assay remarks: ELISA kinase assay, FGFR1 enzymatic activity
# Format: biochemical
# reported conditions: 1 μM; mean of two separate experiments
property: inhibition at 1 µM (%)

// below: answered compounds
COC(=O)Cn1cc(-c2cnc3ccn(S(=O)(=O)c4cn(CCF)cn4)c3n2)cn1 40.7
CC(C)Cn1cnc(S(=O)(=O)n2ccc3ncc(-c4cn[nH]c4)nc32)c1 37.1
Cn1cnc(S(=O)(=O)n2ccc3ncc(-c4cn[nH]c4)nc32)c1 88.8
CCC(=O)n1cc(-c2cnc3ccn(S(=O)(=O)c4cn(CCF)cn4)c3n2)cn1 94.6
O=S(=O)(c1cn(CCF)cn1)n1ccc2ncc(-c3cnn(C4CC4)c3)nc21 2.8

a = CCOC(=O)C(C(=O)OCC)n1cc(-c2cnc3ccn(S(=O)(=O)c4cn(CCF)cn4)c3n2)cn1
b = O=S(=O)(c1cn(CCF)cn1)n1ccc2ncc(-c3cnn(S(=O)(=O)C4CC4)c3)nc21
Problem: Which value of inhibition at 1 µM is greater, the one for a or the one for b ? Provide the label of your selected option as the answer.
Solution: a
(a: 69%, b: 29.5%)

a = O=S(=O)(c1cnc2cccnn12)n1ccc2ncc(-c3cn[nH]c3)nc21
b = CC(=O)Cn1cc(-c2cnc3ccn(S(=O)(=O)c4cn(CCF)cn4)c3n2)cn1
c = CCOC(=O)Cn1cc(-c2cnc3ccn(S(=O)(=O)c4cn(CCF)cn4)c3n2)cn1
d = CN(C)C(=O)Cn1cc(-c2cnc3ccn(S(=O)(=O)c4cn(CCF)cn4)c3n2)cn1
Problem: Sort these compounds on inhibition at 1 µM so the largest reading comes first. # respond with the labels, arranged in the requested order
Solution: a, c, b, d
(a: 90.6%, c: 49.6%, b: 22.6%, d: 15.3%)
